- ASSAY INFO: Acute toxicity, LD50 by oral administration
- SETTINGS: in vivo, mouse
QUANTITY: LD50 (mg/kg)
Give bare numbers, in mg/kg.

Name the recorded LD50 for N#Cc1ncnc2c1cnn2-c1ccccc1 . 100
